Source of measurements: ChEMBL document CHEMBL4689842

test system: HEK-293T; assay: Multiplex assay against HEK293T; format: toxicity, cell-based; conditions: human, 48 h, 10 µM, compound concentration 10 uM, replicate 2;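 also: share of the cells with healthy nuclei that show this phenotype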
Record YES whenever Population Tubulin-Different-Phenotype (%) is at 90% or higher; record NO when lower.

Answered examples (5):
>  <compound>
COc1cc(N2CCC(N(C)C)CC2)ccc1Nc1ncc(Cl)c(Nc2ccccc2P(C)(C)=O)n1

>  <assigned class>
NO

$$$$
>  <compound>
Cc1cc2c(cc1N1C(=O)c3cccc4c(CCCO)ccc(c34)C1=O)n(C)c(=O)n2C

>  <assigned class>
NO

$$$$
>  <compound>
Cc1nc(Cc2cccc(C(F)(F)F)c2)sc1-c1ccc(C(N)=O)nc1 [TP-024n]

>  <assigned class>
NO

$$$$
>  <compound>
Nc1ccc(C(=O)Nc2cccc(-c3nc(N4CCOCC4)c4oc5ncccc5c4n3)c2)cn1

>  <assigned class>
NO

$$$$
>  <compound>
CCCn1c(=O)c2[nH]c(C34CC5CC(CC3C5)C4)nc2n(CCC)c1=O

>  <assigned class>
NO

$$$$

Q) Population Tubulin-Different-Phenotype (%) >= 90% for `CC(C)N1CCC(C)(C)c2cc(C#Cc3ccc(C(=O)O)cc3)ccc21` ?
A) NO

Q) Population Tubulin-Different-Phenotype (%) >= 90% for `C1=N/C2=N/c3ccc(OCCN4CCCC4)c(c3)COC/C=C\COCc3cccc(c3)C(=C1)N2` ?
A) YES

Q) Population Tubulin-Different-Phenotype (%) >= 90% for `O=C(O)c1ccc2cc(-c3ccc(O)c(C45CC6CC(CC(C6)C4)C5)c3)ccc2c1` ?
A) NO
